Listed here are compounds together with their documented pIC50.
- targetDesc: PDK1 kinase in PC3 cells (PKB phosphorylation at Thr 308) (Homo sapiens (Human), UniProt O15530)
- Sequence (O15530 whole entry): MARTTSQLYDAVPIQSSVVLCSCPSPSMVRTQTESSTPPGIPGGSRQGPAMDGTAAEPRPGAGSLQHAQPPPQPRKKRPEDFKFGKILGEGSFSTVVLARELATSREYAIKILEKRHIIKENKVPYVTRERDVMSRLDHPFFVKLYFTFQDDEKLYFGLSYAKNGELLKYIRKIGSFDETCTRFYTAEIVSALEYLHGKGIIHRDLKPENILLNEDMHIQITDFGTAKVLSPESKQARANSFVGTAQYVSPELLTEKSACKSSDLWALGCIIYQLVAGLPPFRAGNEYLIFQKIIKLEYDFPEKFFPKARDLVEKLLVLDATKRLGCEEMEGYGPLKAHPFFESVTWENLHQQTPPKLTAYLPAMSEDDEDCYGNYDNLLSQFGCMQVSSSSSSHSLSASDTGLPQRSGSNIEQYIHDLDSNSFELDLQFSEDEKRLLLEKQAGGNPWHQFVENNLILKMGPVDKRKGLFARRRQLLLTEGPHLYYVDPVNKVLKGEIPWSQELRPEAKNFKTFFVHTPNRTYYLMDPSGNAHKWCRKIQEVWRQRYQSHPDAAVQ
- assayText: Cellular testing of PDK1 kinase inhibitors in PC3 cells (Luminex, phospho-T308-PKB)
- Type: cell-based
- measurementParameters: PKB phosphorylation at Thr 308 in PC3 cells; read-out: cellular IC50
pIC50: −log10 of the molar value.

compound: CC(C)n1cc(-c2cnc3[nH]cc(-c4cc(N(C)c5ccccc5Cl)nc(N)n4)c3c2)cn1 [A19]
signQualifier: =
pIC50: 6.40
--
compound: COc1ccc(N(C[C@H](O)CO)c2cc(-c3c[nH]c4ncc(-c5cnn(C)c5)cc34)nc(N)n2)cc1 [A5]
signQualifier: =
pIC50: 5.17
--
compound: COCC(O)CN(c1ccccc1)c1cc(-c2c[nH]c3ncc(-c4cnn(C)c4)cc23)nc(N)n1 (centres unmarked) [A21]
signQualifier: =
pIC50: 6.28
--
compound: CCN(c1ccccc1)c1cc(-c2c[nH]c3ncc(-c4cnn(C)c4)cc23)nc(N)n1 [A12]
signQualifier: =
pIC50: 6.16
--
compound: CC(C)n1cc(-c2cnc3[nH]cc(-c4cc(N(CCO)c5ccccc5Cl)nc(N)n4)c3c2)cn1 [A15]
signQualifier: =
pIC50: 5.68
--
compound: CN(c1cccc(Cl)c1)c1cc(-c2c[nH]c3ncc(-c4cnn(C)c4)cc23)nc(N)n1 [A8]
signQualifier: =
pIC50: 6.70
--
compound: CCN(c1cc(-c2c[nH]c3ncc(-c4cnn(C)c4)cc23)nc(N)n1)c1nncs1 [A20]
signQualifier: <
pIC50: 5.00
--
compound: Cn1cc(-c2cnc3[nH]cc(-c4cc(N5CCc6cc(F)ccc65)nc(N)n4)c3c2)cn1 [A17]
signQualifier: <
pIC50: 5.00

###

- targetDesc: PDK1 kinase in PC3 cells (PKB phosphorylation at Thr 308) (Homo sapiens (Human))
- assayText: Cellular testing of PDK1 kinase inhibitors in PC3 cells (Luminex, phospho-T308-PKB)
- Format: cell-based
- measurementParameters: Table I comparison, values in nM; read-out: PDK1 inhibition assay cellular IC50

compound: CC(=O)NCCCN(c1ccccc1)c1cc(-c2c[nH]c3ncc(-c4cnn(C)c4)cc23)nc(N)n1
unitsSymbol: nM
IC50: 430
//
compound: Cn1cc(-c2cnc3[nH]cc(-c4cc(N(CCO)c5ccccc5)nc(N)n4)c3c2)cn1
unitsSymbol: nM
IC50: 250
//
compound: CC(C)n1cc(-c2cnc3[nH]cc(-c4cc(C(C)(O)c5ccccc5)nc(N)n4)c3c2)cn1 (stereo not drawn) [reference compound]
unitsSymbol: nM
IC50: 492

###

- targetDesc: PDK1 kinase in PC3 cells (PKB phosphorylation at Thr 308) (Homo sapiens (Human))
- assayText: Cellular testing of PDK1 kinase inhibitors in PC3 cells (Luminex, phospho-T308-PKB)
- Format: cell-based
- measurementParameters: Table I comparison, values given in μM; read-out: PDK1 inhibition assay cellular IC50
Listed here are compounds together with their documented IC50.
measuredMetric: IC50 (µM)

compound: Cn1cc(-c2cnc3[nH]cc(-c4cc(N(CCCN)c5ccccc5)nc(N)n4)c3c2)cn1
unitsSymbol: µM
signQualifier: =
number: 6.8

compound: CC(C)Cn1cc(-c2cnc3[nH]cc(-c4cc(CCCN)nc(N)n4)c3c2)cn1 [reference compound]
unitsSymbol: µM
signQualifier: >
number: 30

compound: CC(=O)NCCCc1cc(-c2c[nH]c3ncc(-c4cnn(C(C)C)c4)cc23)nc(N)n1 [reference compound]
unitsSymbol: µM
signQualifier: >
number: 30

compound: CC(C)n1cc(-c2cnc3[nH]cc(-c4cc(C5(O)CCCC5)nc(N)n4)c3c2)cn1 [reference compound]
unitsSymbol: µM
signQualifier: =
number: 3.5

compound: Cn1cc(-c2cnc3[nH]cc(-c4cc(C5(c6ccccc6)CCCC5)nc(N)n4)c3c2)cn1
unitsSymbol: µM
signQualifier: =
number: 0.625
